- TARGET_OR_TEST_SYSTEM: full-length human Mineralocorticoid Receptor (MR) (Homo sapiens, UniProt P08235)
- Construct: host or cells: PathHunter CHO-K1 cells
- METHOD_NOTES: human MR NH Pro assay (PathHunter Protein:Protein interaction assay), MR antagonist activity
- Type: cell-based
QUANTITY_MEASURED: IC50

Query :: Quick one: IC50 of CCC(C(=O)NCCCl)(c1ccc(Cl)cc1)n1ccc2c(NS(C)(=O)=O)cccc21 (single isomer, unassigned) ?
Result :: 100 to 500 nM

----------
I'd be grateful if you could share measured pIC50 for these entries.
- TARGET_OR_TEST_SYSTEM: full-length human Mineralocorticoid Receptor (MR) (Homo sapiens, UniProt P08235)
- Construct: host or cells: PathHunter CHO-K1 cells
- Sequence (P08235 1-984): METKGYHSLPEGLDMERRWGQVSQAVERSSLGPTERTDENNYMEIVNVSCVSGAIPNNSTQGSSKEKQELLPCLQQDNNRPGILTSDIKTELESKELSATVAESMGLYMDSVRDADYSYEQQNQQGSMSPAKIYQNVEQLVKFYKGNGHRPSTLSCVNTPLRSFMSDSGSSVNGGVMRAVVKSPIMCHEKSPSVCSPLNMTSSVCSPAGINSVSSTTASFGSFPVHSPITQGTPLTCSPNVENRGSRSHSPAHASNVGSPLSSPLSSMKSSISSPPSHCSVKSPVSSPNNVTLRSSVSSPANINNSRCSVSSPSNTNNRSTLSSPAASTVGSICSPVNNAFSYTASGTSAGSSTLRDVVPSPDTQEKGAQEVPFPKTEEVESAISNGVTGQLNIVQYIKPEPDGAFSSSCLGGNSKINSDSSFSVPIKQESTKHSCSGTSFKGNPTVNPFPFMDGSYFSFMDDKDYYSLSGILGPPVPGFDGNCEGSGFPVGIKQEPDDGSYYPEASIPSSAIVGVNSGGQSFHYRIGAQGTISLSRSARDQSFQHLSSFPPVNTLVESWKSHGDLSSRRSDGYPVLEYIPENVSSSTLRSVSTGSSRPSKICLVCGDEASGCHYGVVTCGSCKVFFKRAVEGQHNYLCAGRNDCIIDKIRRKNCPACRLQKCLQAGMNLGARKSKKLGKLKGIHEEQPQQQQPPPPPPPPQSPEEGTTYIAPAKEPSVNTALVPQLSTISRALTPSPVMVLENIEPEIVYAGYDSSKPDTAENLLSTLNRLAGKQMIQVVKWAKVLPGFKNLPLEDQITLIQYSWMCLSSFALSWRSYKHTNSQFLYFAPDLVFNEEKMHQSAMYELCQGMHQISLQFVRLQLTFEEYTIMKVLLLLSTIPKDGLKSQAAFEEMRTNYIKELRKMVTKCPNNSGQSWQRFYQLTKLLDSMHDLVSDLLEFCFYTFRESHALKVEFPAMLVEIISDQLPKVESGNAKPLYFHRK
- METHOD_NOTES: human MR NH Pro assay (PathHunter Protein:Protein interaction assay), MR antagonist activity
- Assay type: cell-based
- CONDITION: PathHunter CHO-K1 cells overexpressing human MR; aldosterone about 0.3 nM; 6 hours at 37° C.; luminescence; read-out: Primary Assay IP rating (IP = inflection point for a given dose-response titration curve)
- From the text: The activity of the compounds of the present invention regarding mineralocorticoid receptor antagonism can be evaluated using the following assay. Assessment of MR Potency in HMR NH Pro Assay […] • (ThermoFisher) (except those wells in columns 23 and 24) 4. […] Read plates on Envision (PerkinElmer) luminesence plate reader and analyze using ADA.
pIC50: −log10 of the molar value.

Query :: Can you share its pIC50? I mean this compound: CCC(/C=C/C(=O)OC)(c1ccc(Cl)cc1)n1ncc2c(NS(C)(=O)=O)cccc21 (centres unmarked)
Result :: 6.30 to 7.00

Query :: Any idea what pIC50 was measured for CCC(CCC(=O)OC)(c1ccc(Cl)cc1)n1ncc2c(NS(C)(=O)=O)cccc21 (centres unmarked) ?
Result :: > 7.00

Query :: Quick one: pIC50 of CCC(CC#N)(c1ccc(Cl)cc1)n1ncc2c(NS(C)(=O)=O)cccc21 (single isomer, unassigned) ?
Result :: > 7.00

Query :: What pIC50 value was documented for this compound, CCC(c1ccc(Cl)cc1)(c1nnc(-c2ccc(F)cc2)o1)n1ccc2c(NS(C)(=O)=O)cccc21 (centres unmarked) ?
Result :: 6.30 to 7.00

Query :: I'd like to know its pIC50. The compound in question is CCC(C(=O)OC)(c1ccc(Cl)cc1Cl)n1ccc2c(NS(C)(=O)=O)cccc21 (centres unmarked)
Result :: 6.30 to 7.00

Query :: Query: pIC50; subject: CCC(CO)(c1ccc(C(F)(F)F)cc1)n1ncc2c(NS(C)(=O)=O)cccc21 (centres unmarked)
Result :: 6.30 to 7.00

Query :: Quick check: pIC50 of CCC(C(=O)NCCc1ccccc1)(c1ccc(Cl)cc1)n1ccc2c(NS(C)(=O)=O)cccc21 (centres unmarked) ?
Result :: 5.30 to 6.30

Query :: If you can, please state the reported pIC50 value of CCn1ncc(C(CC)(c2ccc(Cl)cc2)n2ccc3c(NS(C)(=O)=O)cccc32)n1 (centres unmarked) .
Result :: > 7.00
